Origin of measurements: ChEMBL document CHEMBL3988442

Listed below: Percent Effect values for each entry.
- Tested on: Mycobacterium tuberculosis
- test_method_notes: Cornell - Phenotypic assay to identify agents that inhibit growth of Mycobacterium tuberculosis
- Assay type: functional
- Set-up: scale not given: direction of the effect not stated beside the values
- protocol_conditions: 10 mM as filed; unlikely as a test dose
In all, about 53,000 compounds went through this assay and about 900 (1.7%) showed an effect of 50% or more. This excerpt belongs to a sample that is enriched for strong results.
Use % as the unit, but write only the number.

Look over these answered cases.
# compound, Percent Effect [%]
rows = [
    ("Cc1cccc(CN2CCCCC23CCNC3)n1.O=C(O)C(F)(F)F.O=C(O)C(F)(F)F (stereo not given)", 9.569),
    ("Cc1cnn(CCNCc2nnc(C3CC3)o2)c1", -12.52),
    ("CN(Cc1ccsc1)C(=O)Cn1c(CS(C)(=O)=O)nc2ccccc21", 17.82),
    ("CCc1sc(-c2nnc(CNC(C)Cn3cc(C)cn3)o2)cc1C (stereo not given)", 15.55),
    ("Cc1ccc(-c2nnc(C(C)NCCn3cc(C)cn3)o2)cc1 (stereo not given)", -4.1),
]

Returns the measured Percent Effect for the input compound. Input: `Cc1cc(C)n(-c2nc(NCCCO)c3c4c(sc3n2)CCCC4)n1`
82.78
